Assay: inhibition of PAO1 biofilm formation – strain PAO1, LB-PBS medium, absorbance 600 nm, primary screen (AID 1176); also: test concentration not given here
Details: P. aeruginosa PAO1 growth/biofilm, A600, 12 h; higher = more signal
Quick rule for you: z-score at 0.6 or higher means Yes, lower means No.

Compound	Class
O=C1NC(=O)C2C1C=CC(C(O)c1ccc(-c3ccccc3)s1)N2Nc1ccccn1 (stereo unspecified)	Yes
CC(=O)NCCCC[C@@H]1NC(=O)[C@H]2C[C@@H](C(=O)NCCCCCN)[C@@H](c3cccc(OCCO)c3)N2C1=O	No
CCCC[C@H]1OB(O)C[C@H]2C1=C(COc1ccccc1)Cn1c(=O)n(-c3ccccc3)c(=O)n12	No
O=C1OCCC=C[C@H]2OC34C=CCN(Cn5nnc6ccccc65)C(=O)[C@H]3N(CCCCCO)C(=O)[C@@H]4C12 (stereo partly specified)	No
CCCC=C(CCC)[C@@H](NS(=O)(=O)c1ccccc1)c1ccc(C(F)(F)F)cc1	No
CC1C=C(CCCO)C=C(C(=O)OCCS(C)(=O)=O)C(C(=O)OCCS(C)(=O)=O)=CN1Cc1cccc(OC(F)(F)F)c1 (stereo unspecified)	Yes

q: Dear colleague, could you confirm whether `COc1ccc(CCNC(=O)[C@@H]2c3ccccc3C(=O)N(Cc3ccccc3)[C@H]2c2ccc(CO)cc2)cc1` has z-score at or above 0.6?
a: Yes

q: Dear colleague, could you confirm whether `COC(=O)C(CC#Cc1ccc2c(c1)[C@]1(C(=O)N2)[C@H](c2ccc(O)cc2)N2[C@H](c3ccccc3)[C@H](c3ccccc3)OC(=O)[C@H]2[C@@H]1C(=O)O)C(=O)OC` has z-score at or above 0.6?
a: Yes

q: Dear colleague, could you confirm whether `COc1ccc([Si](C)(C)[C@@H]2[C@@H](CC(=O)N3Cc4ccccc4C[C@H]3CO)O[C@]3(C(=O)N(Cc4cccc(N5CCCCC5=O)c4)c4ccccc43)[C@H]2C)cc1` has z-score at or above 0.6?
a: No

q: Dear colleague, could you confirm whether `CCOC(=O)C[C@H]1[C@H](OC(=O)Cc2ccc3c(c2)OCO3)[C@@H](NC(=O)c2ccccc2)c2cc(OCCCO)ccc2N1C(=O)c1ccccc1` has z-score at or above 0.6?
a: No

q: Dear colleague, could you confirm whether CCCCC(O)C1C=CC2C(=O)N(Cc3ccccc3)C(=O)C2N1n1cnnc1 (stereo unspecified) has z-score at or above 0.6?
a: No
